Tested on: cone glutamate transporter (TBOA-sensitive; EAAT5 immunolabelled at cone terminal)
Construct: gene SLC1A7
Conditions: read-out: steady state EC50
property_measured: pEC50
Friendly reminder that pEC50 comes from taking -log10 of the concentration in mol/L.

Which pEC50 value belongs to N[C@@H](CCC(=O)O)C(=O)O [glutamate] ?
6.15

Source listed as paper PMC10276006.
